Where do the numbers come from? From patent US20210403546A1.

# measured target: T1, human recombinant TGF-b1 (human, UniProt P01137 279-390)
# T1 construct: also called TGF-β1; hTGF-β1
# T1 sequence (P01137 279-390 limits assumed): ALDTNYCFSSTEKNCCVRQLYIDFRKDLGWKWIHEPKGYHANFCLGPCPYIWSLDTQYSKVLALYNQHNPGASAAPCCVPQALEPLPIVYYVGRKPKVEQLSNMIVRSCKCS
# experimental details: SPR (Biacore T200), 10 nM Fab over amine-coupled TGFb1 (492 RUs)
# Procedure: FIG. 27 provides Biacore analysis of the new mutant variant antibodies and compares the new mutants versus parent variant 13A1-2F and versus mu13A1. Selected variants have different monovalent (huIgG1 stabilized Fab format). Biacore binding kinetics, range from lower to higher than the parental mouse 13A1 (mu13A1, hybrid with mouse VK/VH and huCK/huCH1). The data presented is ka, kd and apparent KD. TGFb1 (chip): 492 Rus, Fabs: 10 nM, Flow rate: 30 ul/min, Contact time: 510s, Diss. Time: 600s. […]

binder	binding result
13A1_DF Fab (LCR13A1_VK_GLv1_08 + LCR13A1_VH_GLv1_04) (Fab, V domains shown, Human stabilized IgG1 Fab, 6xHis on CH1) VH: QVQLVQSGSVLAKPGASVKVSCKASGYTFTNYWMHWVRQAPGQGLEWIGTIYPGNSDTNYNQKFKDRAKLTAVTSTSTVYMELSSLRSEDTAVYYCTREDSRSLNFNGWDYFDYWGQGTLVTVSS VL: DIVMTQSPDSLAVSLGQRASISCRASESVDNYGISFLNWFQQKPGQPPKLLIYAASNQGSGVPSRFSGSGSGTDFTLNIHPLEAEDAATYYCQQSKEVPRTFGGGTKVEIK	binds
13A1_AG Fab (LCR13A1_VK_GLv3_02 + LCR13A1_VH_GLv1_05) (Fab, V domains shown, Human stabilized IgG1 Fab, 6xHis on CH1) VH: QVQLVQSGSVLAKPGASVKVSCKASGYTFTNYWTHWVRQAPGQGLEWIGTIYPGNSDTNYNQKFKDRAKLTAVTSTSTVYMELSSLRSEDTALYYCTREDSRSLYYNGWDYFDHWGQGTLVTVSS VL: DIVMTQSPDSLAVSLGERATINCKSSESVDNYGISFLNWYQQKPGKAPKLLIYAASNQGSGVPDRFSGSGSGTDFTLTISSLQAEDAAVYFCQQSKEVPRTFGGGTKLEIK	binds
13A1_DG Fab (LCR13A1_VK_GLv1_08 + LCR13A1_VH_GLv1_05) (Fab, V domains shown, Human stabilized IgG1 Fab, 6xHis on CH1) VH: QVQLVQSGSVLAKPGASVKVSCKASGYTFTNYWTHWVRQAPGQGLEWIGTIYPGNSDTNYNQKFKDRAKLTAVTSTSTVYMELSSLRSEDTALYYCTREDSRSLYYNGWDYFDHWGQGTLVTVSS VL: DIVMTQSPDSLAVSLGQRASISCRASESVDNYGISFLNWFQQKPGQPPKLLIYAASNQGSGVPSRFSGSGSGTDFTLNIHPLEAEDAATYYCQQSKEVPRTFGGGTKVEIK	binds
